Where do these numbers come from? They come from ChEMBL document CHEMBL1153769.

- Test system: HepG2
- test.details: Antitumor activity against human HepG2 cells incubated with drug dissolved in olive oil after 72 hrs by MTT assay
- Type: functional, cell-based
- run.conditions: HepG2, 72 h
pIC50: −log10 of the molar value.
property.measured: pIC50

• CC(=O)O[C@H]1CC[C@H]2[C@@H]3CC[C@H]4CC5=C(C[C@]4(C)[C@H]3CC[C@]12C)C(c1ccccc1)OC(N)=C5C#N (stereo not given in full) = 4.52
• CC(=O)O[C@H]1CC[C@H]2[C@@H]3CC[C@H]4C/C(=N/n5c(-c6ccccc6)csc5=S)CC[C@]4(C)[C@H]3CC[C@]12C = 4.43
• CC(=O)O[C@H]1CC[C@H]2[C@@H]3CC[C@H]4CNC(=O)CC[C@]4(C)[C@H]3CC[C@]12C = 4.46
• COc1ccc(C2Oc3nc(N)c(C#N)c(N)c3C3=C2C[C@@]2(C)[C@@H](CC[C@@H]4[C@@H]2CC[C@]2(C)[C@@H](OC(C)=O)CC[C@@H]42)C3)cc1 (stereo not given in full) = 4.39
• CC(=O)O[C@H]1CC[C@H]2[C@@H]3CC[C@H]4Cc5c(C#N)c(N)n(-c6ccccc6)c(=S)c5C[C@]4(C)[C@H]3CC[C@]12C = 4.40
